Below, each of the compounds is paired with its reported growth yield value.
System: Trichoderma virens ATCC 9645
Experiment: growth yield (OD600) with compound + IPBC relative to untreated control; higher = less growth inhibition
Conditions: compound concentration: 100 uM; IPBC concentration: 200 ng/ml; 72 h
Counter-ions that a name gives are not always drawn. In all, about 1,300 compounds went through this assay and about 130 (10%) showed an effect of 50% or more. This is one part of a sample in which strong results are shown more often than they occur.

compound	growth yield [%]
O=C(O)Cc1ccc(-c2ccccc2)cc1 [Felbinac] + CCCCNC(=O)OCC#CI [3-iodo-2-propynyl butylcarbamate (IPBC)]	91.9
Cc1ccc(/C(=C\CN2CCCC2)c2ccccn2)cc1 [Triprolidine hydrochloride] + CCCCNC(=O)OCC#CI [3-iodo-2-propynyl butylcarbamate (IPBC)]	100
CO[C@@]1(NC(=O)C(C(=O)O)c2ccc(O)cc2)C(=O)N2C(C(=O)O)=C(CSc3nnnn3C)CO[C@@H]21 (stereo partly drawn) [Moxalactam disodium salt] + CCCCNC(=O)OCC#CI [3-iodo-2-propynyl butylcarbamate (IPBC)]	96

Numbers sourced from the supplement of paper PMC8007513.
